System: PANC-1
assay: Antiproliferative activity against human PANC-1 cells assessed as cell death at 100 uM incubated for 72 hrs by trypan blue assay relative to control
Type: functional, cell-based
The source made the active and inactive calls. No cut-off for these calls is given here.
outcome_measure: Activity

molecule	endpoint_value
OCCc1ccc(O)c(O)c1 [HYDROXYTYROSOL]	Active
COc1cc(CCOP(=O)([O-])OCCc2ccc(O)cc2)ccc1O.[Na+]	Active
COc1cc(CCOP(=O)([O-])OCCc2ccc(O)c(OC)c2)ccc1O.[Na+]	Active

---

assay: Stability of compound in simulated intestinal fluid assessed as parent compound remaining at pH 6.8 at 1 mM measured after 48 hrs by HPLC analysis
Assay type: ADME
particulars: simulated gi fluid, pH 6.8, 48 h, 1000 µM
outcome_measure: Stabilty

Would you please look over these solved cases?
line_notation	Stabilty
O=P([O-])(OCCc1ccc(O)cc1)OCCc1ccc(O)cc1.[Na+]	Stable
COc1cc(CCOP(=O)([O-])OCCc2ccc(O)c(O)c2)ccc1O.[Na+]	Stable
O=P([O-])(OCCc1ccc(O)c(O)c1)OCCc1ccc(O)c(O)c1.[Na+]	Stable
COc1cc(CCOP(=O)([O-])OCCc2ccc(O)c(OC)c2)ccc1O.[Na+]	Stable
COc1cc(CCOP(=O)([O-])OCCc2ccc(O)cc2)ccc1O.[Na+]	Stable

Attention now shifts to the item below.
IN: Can you look up the measured Stabilty of O=P([O-])(OCCc1ccc(O)cc1)OCCc1ccc(O)c(O)c1.[Na+] for me?
OUT: Stable

// data source = ChEMBL document CHEMBL4811302
